# Study System: C-type lectin domain family 4 member E (Mus musculus)
# Sequence (whole entry): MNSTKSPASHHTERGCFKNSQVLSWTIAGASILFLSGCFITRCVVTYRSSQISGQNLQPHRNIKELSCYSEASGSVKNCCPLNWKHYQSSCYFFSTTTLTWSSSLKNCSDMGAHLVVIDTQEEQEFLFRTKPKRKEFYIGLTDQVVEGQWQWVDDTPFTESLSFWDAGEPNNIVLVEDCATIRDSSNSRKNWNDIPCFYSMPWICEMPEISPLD
# Assay Info: Agonist activity at mouse mincle coupled with FcRgamma expressed in 2B4-NFAT-GFP reporter cells at 3 nmol/well after 16 hrs by flow cytometric analysis
# Type: cell-based
Activity calls are given as the source filed them. No cut-off for these calls is given here.
Return exactly one item of active, inactive

# example entries with known answers
CCCCCCC(CCCCCCCCCCC(=O)OC)O[C@@H]1O[C@H](CO[C@H]2O[C@H](CO)[C@H](O)[C@H](O)[C@H]2O)[C@@H](O)[C@H](O)[C@H]1O (stereo not given in full) ... inactive
CCCCCCC(CCCCCCCCCCC(=O)OC)O[C@@H]1O[C@H](CO)[C@H](O)[C@H](O)[C@H]1O (stereo not given in full) ... inactive
CCCCCCC(CCCCCCCCCCC(=O)OC)O[C@H]1O[C@H](CO)[C@@H](O)[C@H](O)[C@@H]1O (stereo not given in full) ... inactive

Challenge: Recorded test outcome, item CCCCCCC(CCCCCCCCCCC(=O)OC)O[C@H]1O[C@H](CO)[C@@H](O)[C@H](O)[C@H]1O (stereo not given in full)
Response given: inactive

Challenge: Per the assay record, what outcome was assigned to CCCCCCC(CCCCCCCCCCC(=O)OC)O[C@@H]1O[C@H](CO)[C@@H](O)[C@H](O)[C@@H]1O[C@H]1O[C@H](CO)[C@@H](O)[C@H](O)[C@@H]1O (stereo not given in full) ?
Response given: active

Challenge: Check the results log: what was the call for CCCCCCC(CCCCCCCCCCC(=O)OC)O[C@@H]1O[C@H](CO[C@H]2O[C@H](CO)[C@@H](O)[C@H](O)[C@H]2O)[C@@H](O)[C@H](O)[C@H]1O (stereo not given in full) ?
Response given: inactive

Challenge: Just curious, what result did CCCCCCC(CCCCCCCCCCC(=O)OC)O[C@@H]1O[C@H](CO)[C@@H](O)[C@H](O)[C@H]1O (stereo not given in full) get here?
Response given: inactive

Challenge: # lookup: test call for CCCCCCC(CCCCCCCCCCC(=O)OC)O[C@@H]1O[C@H](CO)[C@@H](O)[C@H](O)[C@@H]1O[C@@H]1O[C@H](CO)[C@@H](O)[C@H](O)[C@@H]1O (stereo not given in full)
Response given: active

Challenge: Which result was noted for this compound in the test: CCCCCCC(CCCCCCCCCCC(=O)OC)O[C@@H]1O[C@H](CO)[C@@H](O)[C@H](O)[C@@H]1O (stereo not given in full)
Response given: inactive

====

# Study System: C-type lectin domain family 4 member E (Mus musculus)
# Sequence (whole entry): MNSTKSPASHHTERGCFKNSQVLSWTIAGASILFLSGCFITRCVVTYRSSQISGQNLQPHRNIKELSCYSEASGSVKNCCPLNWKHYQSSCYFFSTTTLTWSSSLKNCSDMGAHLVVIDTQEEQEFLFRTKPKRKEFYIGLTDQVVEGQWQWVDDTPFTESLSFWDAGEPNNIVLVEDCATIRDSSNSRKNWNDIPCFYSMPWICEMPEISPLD
# Assay Info: Agonist activity at mouse mincle coupled with FcRgamma expressed in 2B4-NFAT-GFP reporter cells at 3 nmol/well after 16 hrs by flow cytometric analysis
# Type: cell-based
Calls of active or inactive are those of the source. No cut-off for these calls is given here.
Select the matching outcome among TRUE for active, FALSE for inactive

Take a look at these entries with their results.
CCCCCCC(CCCCCCCCCCC(=O)OC)O[C@H]1O[C@H](CO)[C@@H](O)[C@H](O)[C@@H]1O[C@@H]1O[C@H](CO)[C@@H](O)[C@H](O)[C@@H]1O (stereo partly specified) ... TRUE
CCCCCCC(CCCCCCCCCCC(=O)OC)O[C@H]1O[C@H](CO)[C@@H](O)[C@H](O)[C@@H]1O[C@H]1O[C@H](CO)[C@@H](O)[C@H](O)[C@@H]1O (stereo partly specified) ... TRUE
CCCCCCC(CCCCCCCCCCC(=O)OC)O[C@@H]1O[C@H](CO)[C@@H](O[C@@H]2O[C@H](CO)[C@@H](O)[C@H](O)[C@H]2O)[C@H](O)[C@H]1O (stereo partly specified) ... FALSE

Challenge: Give the logged outcome of this assay for the following molecule: CCCCCCC(CCCCCCCCCCC(=O)OC)O[C@@H]1O[C@H](CO[C@@H]2O[C@H](CO)[C@@H](O)[C@H](O)[C@H]2O)[C@@H](O)[C@H](O)[C@H]1O (stereo partly specified)
Response given: TRUE

Challenge: Assay result, entry CCCCCCC(CCCCCCCCCCC(=O)OC)O[C@@H]1O[C@H](CO)[C@@H](O[C@H]2O[C@H](CO)[C@@H](O)[C@H](O)[C@H]2O)[C@H](O)[C@H]1O (stereo partly specified) — outcome?
Response given: FALSE

Challenge: Answer briefly: the call reported for CCCCCCC(CCCCCCCCCCC(=O)OC)O[C@H]1O[C@H](CO)[C@H](O)[C@H](O)[C@H]1O (stereo partly specified) in this assay.
Response given: FALSE
